- experimentalProtocol: Crossing blood brain barrier in mice
- Format: in vivo, Male Ncr nude mice
- conditionNotes: male, Ncr nude, mouse, brain, po, 0.167 h, 200 mg/kg orally for 14 days
- Description: Male Ncr nude mice (n=3/time point) is treated for 14 days orally with a therapeutically relevant dose of example 153 (200 mg/kg) or a vehicle control (time: Oh). Daily treatment with a high dose like this is necessary to effectively treat subcutaneously transplanted tumors in these mice. After treatment, mice are sacrified at indicated time points, blood and brain tissue is removed and analysed. The method is as described above in example 2 under “Stability in rat and human plasma”. […]
quantity: concentration at 0.167 h
A complete answer gives the number and then names the unit.

Specify concentration at 0.167 h for CS(=O)(=O)NCc1cccc(-c2ccc3c(N)c(C(=O)c4ccc(Cl)cc4Cl)oc3c2)c1 and stop.
0.6 µg/mL
